- protocol: in vitro
- run-parameters: human, KB cells (nasopharyngeal carcinoma)
- Description: Toxicity evaluated against human nasopharyngeal carcinoma KB cell line
experimental-readout: CC50

| compound | CC50 |
| --- | --- |
| O=P(O)(O)C(O)(C1CCC1)P(=O)(O)O | > 1220 µM |
| CN(CCc1ccccc1)CCC(O)(P(=O)(O)O)P(=O)(O)O | > 739 µM |
| O=C(O)c1cn(C2CC2)c2cc(N3CCN(CC(P(=O)(O)O)P(=O)(O)O)CC3)c(F)cc2c1=O | > 568 µM |
| CCCCCCCCCCC(O)(P(=O)(O)O)P(=O)(O)O | > 806 µM |
| CCOP(=O)(OCC)C(Nc1ncccc1C)P(=O)(OCC)OCC | > 790 µM |

Let's switch to this compound now.
query: GET /values?readout=CC50&item= O=P(O)(O)C(O)(CCc1cccnc1)P(=O)(O)O
result: > 804 µM

----------
Provide the reported selectivity ratio of each item.
- protocol: Therapeutic index was expressed as ratio of LD50 for KB cell line to IC50 against Entamoeba histolytica
- Assay type: cell-based
- run-parameters: human, KB cells; read-out: TI
Numbers only.

Examples with their reported selectivity ratio follow.
| compound | selectivity ratio |
| --- | --- |
| Cc1cc(C)nc(NC(P(=O)(O)O)P(=O)(O)O)c1 | 3.58 |
| O=P(O)(O)C(Nc1cccnc1)P(=O)(O)O | 13 |

query: GET /values?readout=selectivity ratio&item= CCN(CC)C(P(=O)(O)O)P(=O)(O)O [(DIETHYLAMINO)METHYLENEDIPHOSPHONIC ACID]
result: 12.9

Entry source: ChEMBL document CHEMBL1148279
